- Target Or System: Cdc25C (Homo sapiens, UniProt P30307)
- Sequence (P30307 1-473): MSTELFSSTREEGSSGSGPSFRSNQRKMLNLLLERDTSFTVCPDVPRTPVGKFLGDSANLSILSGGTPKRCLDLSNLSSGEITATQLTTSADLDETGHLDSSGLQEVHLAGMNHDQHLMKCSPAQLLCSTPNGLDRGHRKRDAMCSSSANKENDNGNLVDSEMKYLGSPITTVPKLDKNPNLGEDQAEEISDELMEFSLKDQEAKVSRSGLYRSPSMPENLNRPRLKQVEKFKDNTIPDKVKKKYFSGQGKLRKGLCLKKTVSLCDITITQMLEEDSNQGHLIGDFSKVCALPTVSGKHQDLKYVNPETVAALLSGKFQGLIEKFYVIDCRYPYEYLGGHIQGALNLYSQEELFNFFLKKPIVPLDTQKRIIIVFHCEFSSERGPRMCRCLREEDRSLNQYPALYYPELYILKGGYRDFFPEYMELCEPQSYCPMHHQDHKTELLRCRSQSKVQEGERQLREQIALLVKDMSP
- Method Notes: Cdc25C phosphatase inhibition screen at 50 μM
- Type: biochemical
- Condition Set: read-out: Percent Inhibition at 50 uM compound, Cdc25 C
Property Label: inhibition at 50 µM (%)

# example entries with known answers
{"Compound": "O=C1C=C(O)C(=O)C(c2c[nH]c3cc(F)ccc23)=C1O [5A]", "Output Unit": "%", "inhibition at 50 µM": 90}
{"Compound": "Cn1cc(C2=C(O)C(=O)C=C(O)C2=O)c2ccccc21 [2B]", "Output Unit": "%", "inhibition at 50 µM": 19}
{"Compound": "C=CC(C)(C)c1[nH]c2ccccc2c1C1=C(O)C(=O)C=C(O)C1=O [3C]", "Output Unit": "%", "inhibition at 50 µM": 21}
{"Compound": "COc1cccc2[nH]cc(C3=C(O)C(=O)C=C(O)C3=O)c12 [3G]", "Output Unit": "%", "inhibition at 50 µM": 19}
{"Compound": "Cc1[nH]c2ccc(Cl)cc2c1C1=C(O)C(=O)C=C(O)C1=O [7E]", "Output Unit": "%", "inhibition at 50 µM": 81}

(A) Cc1ccc2c(C3=C(O)C(=O)C=C(O)C3=O)c(C)[nH]c2c1 [7F]
(B) Cc1cccc2[nH]cc(C3=C(O)C(=O)C=C(O)C3=O)c12 [4A]
(C) Cc1ccccc1Cc1cccc2c(C3=C(O)C(=O)C=C(O)C3=O)c[nH]c12 [6F]
Ask: In this exercise, place the 3 compounds in ascending sequence of their recorded inhibition at 50 µM. # format: label list in the order the request specifies
Reply: A, B, C

(A) Cc1ccc2c(C3=C(O)C(=O)C=C(O)C3=O)c[nH]c2c1C [8B]
(B) CC(C)(C)c1cccc2c(C3=C(O)C(=O)C=C(O)C3=O)c[nH]c12 [6G]
(C) O=C1C=C(O)C(=O)C(c2c[nH]c3cccc(Br)c23)=C1O [3F]
Ask: Sort by inhibition at 50 µM, descending. # format: label list in the order the request specifies
Reply: C, B, A
(C: 54%, B: 37%, A: 20%)

====

- Target Or System: Cdc25B (Homo sapiens, UniProt P30305)
- Sequence (P30305 whole entry, species assumed): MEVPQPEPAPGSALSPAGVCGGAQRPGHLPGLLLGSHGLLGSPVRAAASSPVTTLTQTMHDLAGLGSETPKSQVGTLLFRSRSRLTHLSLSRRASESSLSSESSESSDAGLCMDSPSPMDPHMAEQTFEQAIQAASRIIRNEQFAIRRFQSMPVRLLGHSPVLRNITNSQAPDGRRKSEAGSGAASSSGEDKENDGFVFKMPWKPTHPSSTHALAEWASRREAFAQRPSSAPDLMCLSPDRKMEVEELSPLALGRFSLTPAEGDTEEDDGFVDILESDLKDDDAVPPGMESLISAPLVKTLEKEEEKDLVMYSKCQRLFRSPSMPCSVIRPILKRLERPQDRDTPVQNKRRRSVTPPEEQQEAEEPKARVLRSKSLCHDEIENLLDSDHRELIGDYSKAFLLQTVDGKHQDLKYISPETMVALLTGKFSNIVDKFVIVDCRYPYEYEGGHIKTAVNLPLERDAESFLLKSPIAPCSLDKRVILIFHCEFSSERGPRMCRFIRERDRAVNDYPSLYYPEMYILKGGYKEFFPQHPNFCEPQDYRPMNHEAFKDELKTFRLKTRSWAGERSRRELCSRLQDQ
- Method Notes: Cdc25B phosphatase inhibition (50 μM screen, 3 pt. and 8 pt. IC-50)
- Format: biochemical
- Condition Set: Cdc25B; 3 pt. IC-50 using 1, 7 and 50 μM; read-out: IC50 (3 pt)
Property Label: IC50 (µM)

{"Compound": "Cc1cccc2c(C3=C(O)C(=O)C(c4c(C(C)(C)C)[nH]c5ccccc45)=C(Cl)C3=O)c[nH]c12 [11G]", "IC50 [µM]": 33.8}

(a) O=C1C=C(O)C(=O)C(c2c(C3CC3)[nH]c3ccccc23)=C1O
(b) CC(C)=CCC/C(C)=C/Cc1cccc2c(C3=C(O)C(=O)C=C(O)C3=O)c[nH]c12
Ask: Select the item with the higher value of IC50 from the options a and b listed. Reply briefly: the label of your chosen item.
Reply: a

(P) O=C1C=C(O)C(=O)C(c2c[nH]c3cc(F)ccc23)=C1O
(Q) Cc1[nH]c2c(C)cccc2c1C1=C(O)C(=O)C=C(O)C1=O
(R) CC1(c2[nH]c3ccccc3c2C2=C(O)C(=O)C=C(O)C2=O)CC1
(S) COc1ccc2[nH]c(C)c(C3=C(O)C(=O)C=C(O)C3=O)c2c1
Ask: Sort by IC50, descending. # format: label list in the order the request specifies
Reply: S, Q, R, P
(S: 126 µM, Q: 38.5 µM, R: 3.6 µM, P: 2 µM)

Taken from patent US7057052B2.
